target: CDK4/cyclin D3 (Homo sapiens, UniProt P11802); construct: purchased Carna Biosciences, Inc. QS S Assist CDK4/Cyclin D3_FP Kit; assay: Human CDK4/cyclin D3 inhibitory activity (QS S Assist CDK4/Cyclin D3_FP Kit, IMAP fluorescence polarization); format: biochemical; details: Human CDK4/cyclin D3 inhibitory activity; read-out: CDK4 Activity symbol
Sequence (P11802 whole entry): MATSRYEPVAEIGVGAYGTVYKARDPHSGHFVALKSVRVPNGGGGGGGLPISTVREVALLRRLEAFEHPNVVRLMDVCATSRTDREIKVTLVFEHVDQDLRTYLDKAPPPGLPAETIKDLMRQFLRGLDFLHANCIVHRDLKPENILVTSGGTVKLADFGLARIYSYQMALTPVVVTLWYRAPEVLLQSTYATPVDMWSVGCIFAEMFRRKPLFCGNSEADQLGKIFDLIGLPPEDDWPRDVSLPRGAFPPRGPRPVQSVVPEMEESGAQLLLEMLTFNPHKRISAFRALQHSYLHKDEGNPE
Sequence (P30281 whole entry partner): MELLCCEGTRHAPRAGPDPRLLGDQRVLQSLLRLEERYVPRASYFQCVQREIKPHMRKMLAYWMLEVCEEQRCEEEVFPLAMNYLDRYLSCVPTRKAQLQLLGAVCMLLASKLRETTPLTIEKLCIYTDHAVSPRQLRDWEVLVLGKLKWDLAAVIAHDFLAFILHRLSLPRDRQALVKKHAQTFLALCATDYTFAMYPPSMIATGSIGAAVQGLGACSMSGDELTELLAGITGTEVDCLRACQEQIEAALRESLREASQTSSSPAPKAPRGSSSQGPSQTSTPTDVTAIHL
pIC50: −log10 of the molar value.
Value Kind: pIC50

Guide cases for pIC50, answers given:
[[record]]
compound = "C[C@@H](O)c1nc(N[C@H]2CC[C@H](O)CC2)c2nc(Nc3ccc(N4CCNCC4)nn3)ncc2c1Cl"
recorded_result = "> 8.00"

[[record]]
compound = "CC(C)Nc1nc(C(F)F)cc2cnc(Nc3ccc(-c4ccccc4)cn3)nc12"
recorded_result = "≤ 7.00"

[[record]]
compound = "CC(C)Nc1nc([C@@H](C)O)cc2cnc(Nc3ccc(O[C@@H]4CCNC[C@@H]4F)nn3)nc12"
recorded_result = "> 8.00"

[[record]]
compound = "CO[C@H](C)c1cc2cnc(Nc3ccc(N4CC5(CCNCC5)C4)cn3)nc2c(NC(C)C)n1"
recorded_result = "> 8.00"

[[record]]
compound = "CO[C@H](C)c1cc2cnc(Nc3ccc(N4C5CCC4CC(N)C5)cn3)nc2c(NC(C)C)n1 (some centres unmarked)"
recorded_result = "> 8.00"

[[record]]
compound = "CC(C)Nc1nc([C@@H](C)O)cc2cnc(Nc3ccc(N4CCC(C)(N)CC4)nn3)nc12"
recorded_result = "> 8.00"

[[record]]
compound = "CO[C@H](C)c1cc2cnc(Nc3ccc(OCCN(C)C)nn3)nc2c(NC(C)C)n1"
recorded_result = "7.00 to 8.00"


Consider the additional compound presented here.
QUERY: Kindly state the measured pIC50 obtained for CC(O)c1cc2cnc(Nc3ccc(N4CCNCC4)cn3)nc2c(Nc2ccccc2)n1 (centres unmarked) with CDK4/cyclin D3 (Homo sapiens, UniProt P11802).
RESULT: > 8.00

###

target: CDK4/cyclin D3 (Homo sapiens); construct: purchased Carna Biosciences, Inc. QS S Assist CDK4/Cyclin D3_FP Kit; assay: Human CDK4/cyclin D3 inhibitory activity (QS S Assist CDK4/Cyclin D3_FP Kit, IMAP fluorescence polarization); assay type: biochemical; details: Human CDK4/cyclin D3 inhibitory activity; read-out: CDK4 Activity symbol
Entries and their measured IC50 follow.

Guide cases for IC50, answers given:
[[record]]
compound = "CC(C)Nc1nc(C(F)F)cc2cnc(Nc3ccc(CN(C[C@@H]4CCCO4)S(C)(=O)=O)cn3)nc12"
value_kind = "IC50"
recorded_result = "10 to 100 nM"

[[record]]
compound = "CO[C@H](C)c1cc2cnc(Nc3ccc(N4CCNC5(CC5)C4)nn3)nc2c(N[C@H]2CCCOC2)n1"
value_kind = "IC50"
recorded_result = "< 10 nM"

[[record]]
compound = "CC(=O)c1nc(NC(C)C)c2nc(Nc3ccc(N4CCNCC4)cn3)ncc2c1C"
value_kind = "IC50"
recorded_result = "< 10 nM"

[[record]]
compound = "C[C@@H](O)c1cc2cnc(Nc3ccc(CN4CCNCC4)cn3)nc2c(NCC2CCOCC2)n1"
value_kind = "IC50"
recorded_result = "< 10 nM"

[[record]]
compound = "COCC(C)(C)Nc1nc([C@@H](C)O)cc2cnc(Nc3ccc(NCCO)nn3)nc12"
value_kind = "IC50"
recorded_result = "10 to 100 nM"


QUERY: Can you share its IC50? I mean this compound: CC(C)Nc1nc(C(C)O)cc2cnc(Nc3ccc(N4CCNCC4)cn3)nc12 (stereo not shown)
RESULT: < 10 nM

QUERY: Can you share its IC50? I mean this compound: CC(C)Nc1nc([C@@H](C)O)cc2cnc(Nc3ccc(OC4CNC4)cn3)nc12
RESULT: < 10 nM

QUERY: Can you share its IC50? I mean this compound: COC(C)c1cc2cnc(Nc3ccc(CN4CCNCC4)cn3)nc2c(NC2(CO)CCCCC2)n1 (stereo not shown)
RESULT: < 10 nM

QUERY: Can you share its IC50? I mean this compound: CC(O)c1cc2cnc(Nc3ccc(N4CCNCC4)cn3)nc2c(NC(C)(C)CO)n1 (stereo not shown)
RESULT: < 10 nM

QUERY: Can you share its IC50? I mean this compound: COC(C)c1cc2cnc(Nc3ccc(CN4CCNCC4)cn3)nc2c(NC2CN3CCC2CCOC3=O)n1 (stereo not shown)
RESULT: < 10 nM

QUERY: Can you share its IC50? I mean this compound: CO[C@H](C)c1cc2cnc(Nc3ccc(N4C[C@H]5CCN[C@H]5C4=O)cn3)nc2c(NC(C)C)n1
RESULT: < 10 nM

QUERY: Can you share its IC50? I mean this compound: COCC(C)(C)Nc1nc([C@@H](C)O)cc2cnc(Nc3ccc(CCO)cn3)nc12
RESULT: 10 to 100 nM

QUERY: Can you share its IC50? I mean this compound: COC(C)c1cc2cnc(Nc3ccc(CN4CCNCC4)cn3)nc2c(NCC2CCCC(O)C2)n1 (stereo not shown)
RESULT: < 10 nM

QUERY: Can you share its IC50? I mean this compound: CO[C@H](C)c1cc2cnc(Nc3ccc(N4CCNC(=O)C(C)(C)C4)cn3)nc2c(NC(C)C)n1
RESULT: 10 to 100 nM

QUERY: Can you share its IC50? I mean this compound: CC(C)Oc1nc(C(F)F)cc2cnc(Nc3ccc(N4CCNCC4)cn3)nc12
RESULT: < 10 nM

QUERY: Can you share its IC50? I mean this compound: C[C@@H](O)c1cc2cnc(Nc3ccc(N4CCN(C=O)CC4=O)cn3)nc2c(N[C@@H]2CCCOC2)n1
RESULT: < 10 nM

QUERY: Can you share its IC50? I mean this compound: COCC(C)(C)Nc1nc([C@@H](C)O)cc2cnc(Nc3ccc(CN4CCC(C(C)(C)O)CC4)cn3)nc12
RESULT: < 10 nM

###

Entries and their measured pIC50 follow.
target: CDK2/cyclin A2 (Homo sapiens, UniProt P24941); construct: purchased Carna Biosciences, Inc. QS S Assist CDK2/Cyclin A2_FP Kit; assay: Human CDK2/cyclin A2 inhibitory activity (QS S Assist CDK2/Cyclin A2_FP Kit, IMAP fluorescence polarization); assay type: biochemical; conditions: Human CDK2/cyclin A2 inhibitory activity; read-out: CDK2 Activity symbol
pIC50: −log10 of the molar value.

Guide cases for pIC50, answers given:
[[record]]
compound = "CC(C)Nc1nc([C@@H](C)O)cc2cnc(Nc3ccc(N4C[C@H]5CCN[C@H]5C4=O)cn3)nc12 [Compound 558]"
value_kind = "pIC50"
recorded_result = "7.00 to 8.00"

[[record]]
compound = "C[C@@H](O)c1cc2cnc(Nc3ccc(N4CCNCC4)nn3)nc2c(N[C@H]2CCCOC2)n1 [Compound 253]"
value_kind = "pIC50"
recorded_result = "≤ 7.00"

[[record]]
compound = "C[C@@H](O)c1cc2cnc(Nc3ccc(CN4CCNCC4)cn3)nc2c(NC2(C(=O)O)CCCC2)n1 [Compound 325]"
value_kind = "pIC50"
recorded_result = "≤ 7.00"

[[record]]
compound = "C[C@@H](O)c1cc2cnc(Nc3ccc(N4CCNCC4)nn3)nc2c(NCC2CCOCC2)n1 [Compound 313]"
value_kind = "pIC50"
recorded_result = "≤ 7.00"


QUERY: Can you share its pIC50? I mean this compound: CC(C)Nc1nc([C@@H](C)O)cc2cnc(Nc3ccc(N4CCN(C5CCC5)CC4)nn3)nc12 [Compound 602]
RESULT: ≤ 7.00

###

Entries and their measured pIC50 follow.
target: CDK2/cyclin A2 (Homo sapiens); construct: purchased Carna Biosciences, Inc. QS S Assist CDK2/Cyclin A2_FP Kit; assay: Human CDK2/cyclin A2 inhibitory activity (QS S Assist CDK2/Cyclin A2_FP Kit, IMAP fluorescence polarization); format: biochemical; conditions: 50% inhibitory concentration against CDK2/cyclin A2, given as class symbol
pIC50: −log10 of the molar value.

Guide cases for pIC50, answers given:
[[record]]
compound = "C[C@@H](O)c1cc2cnc(Nc3ccc(CN4CCN(CCO)CC4)cn3)nc2c(NCCC(F)(F)F)n1 [Compound 1214]"
recorded_result = "≤ 7.00"

[[record]]
compound = "CCCNc1nc([C@@H](C)O)cc2cnc(Nc3ccc(N4CCC(N(C)C)CC4)nn3)nc12 [Compound 1159]"
recorded_result = "≤ 7.00"

[[record]]
compound = "CC(O)CN1CCN(Cc2ccc(Nc3ncc4cc([C@@H](C)O)nc(NC(C)C)c4n3)nc2)CC1 (stereo partly shown) [Compound 638]"
recorded_result = "≤ 7.00"


QUERY: Can you share its pIC50? I mean this compound: O=C(O)C1CCN(Cc2ccc(Nc3ncc4cc(C(F)F)nc(NC5CCC5)c4n3)nc2)CC1 [Compound 1099]
RESULT: ≤ 7.00

meta.source: patent US10124004B2
